Molecular target: Human SSAO (Homo sapiens)
Sequence (Q16853 whole entry): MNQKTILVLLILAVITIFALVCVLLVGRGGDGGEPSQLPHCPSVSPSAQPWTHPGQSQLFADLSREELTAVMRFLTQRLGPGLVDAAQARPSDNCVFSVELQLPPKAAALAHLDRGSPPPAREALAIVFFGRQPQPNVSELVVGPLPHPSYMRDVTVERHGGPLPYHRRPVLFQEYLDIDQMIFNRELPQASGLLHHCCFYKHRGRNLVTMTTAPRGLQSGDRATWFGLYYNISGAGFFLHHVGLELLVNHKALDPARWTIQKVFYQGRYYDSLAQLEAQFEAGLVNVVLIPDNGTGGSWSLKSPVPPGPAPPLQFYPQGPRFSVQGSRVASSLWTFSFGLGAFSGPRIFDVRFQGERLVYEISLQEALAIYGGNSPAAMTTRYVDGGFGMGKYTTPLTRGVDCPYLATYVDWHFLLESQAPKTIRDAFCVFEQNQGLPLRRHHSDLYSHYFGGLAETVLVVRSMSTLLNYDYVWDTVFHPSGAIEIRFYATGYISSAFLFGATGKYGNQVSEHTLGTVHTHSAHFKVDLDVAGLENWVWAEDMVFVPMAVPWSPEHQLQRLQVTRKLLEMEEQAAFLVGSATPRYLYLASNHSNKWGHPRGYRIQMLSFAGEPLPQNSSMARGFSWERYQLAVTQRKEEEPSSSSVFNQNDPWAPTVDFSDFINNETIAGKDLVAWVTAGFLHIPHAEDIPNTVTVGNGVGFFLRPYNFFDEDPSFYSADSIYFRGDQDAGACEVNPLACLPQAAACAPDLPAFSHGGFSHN
Assay: SSAO activity, hydrogen peroxide production relative to benzylamine (human)
Assay type: biochemical
Settings: compound at 1 mM
I'd be grateful if you could share measured SSAO activity (% relative to benzylamine) Human for these entries.
Answers are plain numbers, in %.

Record excerpt, results attached:
# SMILES INPUT, READOUT UNIT, NUMBER
records = [
    ("NCc1cccc2c1OCCO2", "%", 0.00),
    ("NCc1ccc(-c2ccccc2)cc1", "%", 0.00),
    ("COc1ccc(CN)c2ccccc12", "%", 0.70),
    ("NCCc1ccc(F)cc1", "%", 16.30),
    ("NCCOc1ccccc1", "%", 17.93),
    ("CC(C)c1ccc(CN)cc1", "%", 0.00),
    ("Cc1ccc(CN)cc1F", "%", 7.07),
    ("NCc1ccc(CN)cc1", "%", 0.00),
]

Next:
Exercise: Item under review: "NCc1ccc(F)cc1" . Reported SSAO activity (% relative to benzylamine) Human?
Solution: 31.70
